# system: c-KIT kinase (Homo sapiens (Human), UniProt P10721)
# Sequence (P10721 26-976): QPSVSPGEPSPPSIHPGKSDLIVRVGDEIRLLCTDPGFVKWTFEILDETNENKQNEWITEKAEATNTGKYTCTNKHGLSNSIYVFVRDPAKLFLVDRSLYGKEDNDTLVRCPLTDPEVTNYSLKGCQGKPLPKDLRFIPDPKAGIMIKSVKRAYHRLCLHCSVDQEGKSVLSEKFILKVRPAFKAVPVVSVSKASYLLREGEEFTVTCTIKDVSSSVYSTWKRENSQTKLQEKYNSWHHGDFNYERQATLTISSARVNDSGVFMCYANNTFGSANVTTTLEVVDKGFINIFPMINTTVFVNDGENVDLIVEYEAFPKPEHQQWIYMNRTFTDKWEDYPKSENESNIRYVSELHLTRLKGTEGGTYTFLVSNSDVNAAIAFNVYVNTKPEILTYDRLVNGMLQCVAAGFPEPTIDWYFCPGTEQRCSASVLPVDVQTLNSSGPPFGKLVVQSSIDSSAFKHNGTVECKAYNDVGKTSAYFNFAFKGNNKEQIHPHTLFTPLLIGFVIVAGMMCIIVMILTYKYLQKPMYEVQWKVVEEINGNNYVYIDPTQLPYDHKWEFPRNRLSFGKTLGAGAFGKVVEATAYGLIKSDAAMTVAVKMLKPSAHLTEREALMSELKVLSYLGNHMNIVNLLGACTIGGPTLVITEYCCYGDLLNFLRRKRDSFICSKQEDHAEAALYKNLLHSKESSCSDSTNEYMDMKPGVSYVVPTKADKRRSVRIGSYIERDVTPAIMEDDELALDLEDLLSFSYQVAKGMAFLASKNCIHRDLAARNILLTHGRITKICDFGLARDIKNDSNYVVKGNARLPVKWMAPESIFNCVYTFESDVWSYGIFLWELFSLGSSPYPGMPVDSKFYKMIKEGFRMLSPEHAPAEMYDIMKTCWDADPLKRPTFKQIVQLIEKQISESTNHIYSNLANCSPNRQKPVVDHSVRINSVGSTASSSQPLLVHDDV
# assayDetails: cKit inhibition assay Method C (electrophoretic mobility shift)
# Format: biochemical
# condition: compound at 1 μM, 300 μM ATP; read-out: c-KIT % Inhibition
I'd appreciate it if you could supply inhibition at 1 µM values for the items below.
Response body: numeric value in %, unit text excluded.

# inhibition at 1 µM (molecule: Cc1ccc(NC(=O)c2ccc(NC(=O)COC(=O)c3c(Cl)cccc3Cl)cc2)cc1Nc1nccc(-c2cccnc2)n1 ) is 94

# inhibition at 1 µM (molecule: Cc1ccc(NC(=O)c2ccc(CN3C(=O)C=CC3=O)cc2)cc1Nc1nccc(-c2cccnc2)n1 ) is 78

# inhibition at 1 µM (molecule: C=CC(=O)NCc1ccc(C(=O)Nc2ccc(C)c(Nc3nccc(-c4cccnc4)n3)c2)cc1 ) is 91

# inhibition at 1 µM (molecule: Cc1ccc(NC(=O)c2ccc(NC(=O)/C=C/CN(C)C)cc2)cc1Nc1nccc(-c2cccnc2)n1 ) is 66
